biological target: α2-GABAA receptor (Homo sapiens, UniProt P18507+P47869); construct: expressed in transfected cells; experiment: Whole-cell patch-clamp electrophysiology, positive allosteric modulatory activity in α2-GABAAR-HEK293 cells; type: cell-based; conditions: compound 100 nM; GABA 0.10 to 0.11 µM (approximately EC7-8); normalized to reference compound CVL-865 (= 100%); read-out: α2-GABAAR Positive allosteric modulatory activity
Sequence (P47869 29-451): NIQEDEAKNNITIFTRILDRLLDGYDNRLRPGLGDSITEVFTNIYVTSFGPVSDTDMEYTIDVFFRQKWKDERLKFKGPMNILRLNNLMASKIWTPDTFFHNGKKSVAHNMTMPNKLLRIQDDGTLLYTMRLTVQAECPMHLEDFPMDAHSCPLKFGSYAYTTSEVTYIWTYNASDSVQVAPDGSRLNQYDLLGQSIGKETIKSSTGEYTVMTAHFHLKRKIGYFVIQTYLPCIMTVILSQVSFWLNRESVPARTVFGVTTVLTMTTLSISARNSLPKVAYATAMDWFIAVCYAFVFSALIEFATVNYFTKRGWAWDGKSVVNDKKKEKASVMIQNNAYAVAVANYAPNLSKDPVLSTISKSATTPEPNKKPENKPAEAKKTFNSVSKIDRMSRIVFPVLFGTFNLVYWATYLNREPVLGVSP
Sequence (P18507 40-467 isoform P18507-1 limits assumed): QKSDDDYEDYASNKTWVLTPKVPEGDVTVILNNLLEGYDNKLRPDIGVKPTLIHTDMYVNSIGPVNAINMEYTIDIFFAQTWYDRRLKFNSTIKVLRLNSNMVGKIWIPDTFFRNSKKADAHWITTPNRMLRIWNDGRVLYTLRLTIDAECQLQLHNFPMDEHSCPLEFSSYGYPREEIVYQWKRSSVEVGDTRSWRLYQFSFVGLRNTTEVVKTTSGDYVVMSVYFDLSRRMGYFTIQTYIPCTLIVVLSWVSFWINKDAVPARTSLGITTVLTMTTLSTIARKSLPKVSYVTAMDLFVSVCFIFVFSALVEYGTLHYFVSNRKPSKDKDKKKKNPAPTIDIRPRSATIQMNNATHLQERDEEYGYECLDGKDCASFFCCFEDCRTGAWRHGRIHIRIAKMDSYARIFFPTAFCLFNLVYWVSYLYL
Sequence (P28472 26-473 partner): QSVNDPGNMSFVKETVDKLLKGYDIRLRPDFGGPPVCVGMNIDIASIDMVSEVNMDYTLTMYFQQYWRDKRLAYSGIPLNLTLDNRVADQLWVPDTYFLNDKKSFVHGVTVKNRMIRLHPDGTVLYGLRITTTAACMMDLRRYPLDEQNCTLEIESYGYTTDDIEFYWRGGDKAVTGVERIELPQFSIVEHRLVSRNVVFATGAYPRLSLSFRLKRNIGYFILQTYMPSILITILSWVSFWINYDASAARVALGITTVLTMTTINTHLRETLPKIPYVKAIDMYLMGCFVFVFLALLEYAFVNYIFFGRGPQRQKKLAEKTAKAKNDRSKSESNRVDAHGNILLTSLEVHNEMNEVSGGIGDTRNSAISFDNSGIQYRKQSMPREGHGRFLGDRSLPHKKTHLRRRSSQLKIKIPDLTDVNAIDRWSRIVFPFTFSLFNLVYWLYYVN
reported_property: Emax at 0.1 µM (%)

Take a look at these entries with their results.
CCCNC(=O)c1nc2c(-c3c(F)cccc3OC)c(C(F)F)ccn2c1N : 49
CCCNC(=O)c1nc2c(-c3ccnc(C)c3)cccn2c1N : 73
CCCNC(=O)c1nc2c(-c3cccc(OC)c3F)cccn2c1N : 71
CCCCNC(=O)c1nc2c(-c3c(F)cccc3OC)c(F)ccn2c1N : 90
CCCNC(=O)c1nc2c(-c3cccc(/C(C)=N/OC)c3)cccn2c1N : 50

I: CCCNC(=O)c1nc2c(-c3cccc(C#N)c3F)cccn2c1N
II: CCCNC(=O)c1nc2c(-c3c(F)cccc3OC)c(Cl)ccn2c1N
III: CCCCNC(=O)c1nc2c(-c3c(F)cccc3OC)cccn2c1N
Query block: Could you please sort these 3 entries by Emax at 0.1 µM from high to low? Lab note: record answer as labels in requested order.
Result block: I, III, II
